Entries and their measured melting point follow.
Answer format: numeric, °C implied, no suffix.

| Mol smiles | Endpoint | Recorded measurement |
| --- | --- | --- |
| NC(=O)c1[nH]c2ncccc2c1-c1ccc(NC(=O)Nc2ccc(F)c(C(F)(F)F)c2)cc1 | melting point | 234.7 |

[Q] For `Cc1cc(C)cc(NC(=O)Nc2ccc(-c3c(C(N)=O)[nH]c4cnccc34)cc2)c1` , what is its reported melting point?
[A] 188

====

target: FAK (Homo sapiens); construct: The whole cDNA of human FAK; experiment: FAK autophosphorylation inhibition, time-resolved fluorescence test (HTRF); conditions: autophosphorylation of His-tagged human FAK, 15 μM ATP, 1 hour at 37° C.
Sequence (Q05397 whole entry): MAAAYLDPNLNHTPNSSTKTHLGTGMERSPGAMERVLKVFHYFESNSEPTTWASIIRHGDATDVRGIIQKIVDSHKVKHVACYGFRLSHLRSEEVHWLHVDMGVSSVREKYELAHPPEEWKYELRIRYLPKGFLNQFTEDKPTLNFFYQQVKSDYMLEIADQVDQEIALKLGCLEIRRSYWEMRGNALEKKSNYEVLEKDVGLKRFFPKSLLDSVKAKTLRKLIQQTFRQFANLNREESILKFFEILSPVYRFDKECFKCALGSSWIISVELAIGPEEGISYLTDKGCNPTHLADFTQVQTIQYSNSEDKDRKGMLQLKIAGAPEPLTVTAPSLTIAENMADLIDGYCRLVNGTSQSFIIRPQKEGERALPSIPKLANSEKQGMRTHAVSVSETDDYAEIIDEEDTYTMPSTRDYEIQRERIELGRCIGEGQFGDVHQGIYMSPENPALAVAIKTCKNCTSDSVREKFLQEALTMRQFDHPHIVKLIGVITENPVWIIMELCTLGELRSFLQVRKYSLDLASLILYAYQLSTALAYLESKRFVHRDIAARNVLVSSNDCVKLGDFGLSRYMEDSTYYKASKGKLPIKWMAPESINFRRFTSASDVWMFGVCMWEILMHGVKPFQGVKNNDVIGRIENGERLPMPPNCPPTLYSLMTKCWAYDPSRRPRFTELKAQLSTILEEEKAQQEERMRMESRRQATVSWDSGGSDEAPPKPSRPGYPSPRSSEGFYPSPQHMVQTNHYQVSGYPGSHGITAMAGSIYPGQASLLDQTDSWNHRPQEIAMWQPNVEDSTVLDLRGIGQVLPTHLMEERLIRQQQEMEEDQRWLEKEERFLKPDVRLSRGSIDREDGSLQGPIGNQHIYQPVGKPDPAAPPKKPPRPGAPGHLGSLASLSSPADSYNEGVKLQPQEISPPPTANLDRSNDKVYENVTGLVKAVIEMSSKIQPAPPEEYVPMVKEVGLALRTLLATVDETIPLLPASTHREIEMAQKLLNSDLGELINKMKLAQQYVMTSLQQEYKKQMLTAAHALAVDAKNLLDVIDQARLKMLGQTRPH
Endpoint: pIC50
The read-out pIC50 is expressed as -log10 of concentration in moles per litre.

Examples from the recorded data:
| Compound | pIC50 |
| --- | --- |
| Cc1ccc(F)c(NC(=O)Nc2ccc(-c3c(C(N)=O)[nH]c4cnccc34)cc2)c1.O=C(O)C(F)(F)F [Example 5, trifluoroacetate] | 6.60 |
| NC(=O)c1[nH]c2ncccc2c1-c1ccc(NC(=O)Nc2cc(C(F)(F)F)ccc2F)cc1 | 6.74 |
| NC(=O)c1[nH]c2cnccc2c1-c1ccc(NC(=O)Nc2cc(C(F)(F)F)ccc2F)cc1 | 6.79 |

Could you now look at the following compound, please?
[Q] Hello, I am looking for reported pIC50 with FAK (Homo sapiens) for `COc1ccc(C)cc1NC(=O)Nc1ccc(-c2c(C(N)=O)[nH]c3cnccc23)cc1` . Could you help?
[A] 6.52

====

Endpoint: melting point (°C)
Could you give me the number in °C? Just the number is fine.

Below: 6 molecules and their reported melting point.
| Mol smiles | melting point [°C] |
| --- | --- |
| NC(=O)c1[nH]c2cnccc2c1-c1ccc(NC(=O)Nc2cc(F)cc(C(F)(F)F)c2)cc1 | 261 |
| COc1cc(NC(=O)Nc2ccc(-c3c(C(N)=O)[nH]c4ncccc34)cc2)cc(OC)c1 | 266.5 |
| NC(=O)c1[nH]c2cnccc2c1-c1ccc(NC(=O)Nc2ccc(F)c(Cl)c2)cc1.O=C(O)C(F)(F)F | 214 |
| NC(=O)c1[nH]c2cnccc2c1-c1ccc(NC(=O)Nc2cc(C(F)(F)F)ccc2F)cc1 | 286 |
| CCc1cccc(NC(=O)Nc2ccc(-c3c(C(N)=O)[nH]c4cnccc34)cc2)c1 | 257 |
| NC(=O)c1[nH]c2ncccc2c1-c1ccc(NC(=O)Nc2ccc(OC(F)F)cc2)cc1 | 283.5 |

[Q] Given the molecule `COc1cccc(NC(=O)Nc2ccc(-c3c(C(N)=O)[nH]c4ncccc34)cc2)c1` , what is its reported melting point?
[A] 306.2

[Q] Please do the same for `NC(=O)c1[nH]c2cnccc2c1-c1ccc(NC(=O)Nc2cc(C(F)(F)F)ccc2Cl)cc1` as well.
[A] 243

[Q] Same question, `NC(=O)c1[nH]c2cnccc2c1-c1ccc(NC(=O)Nc2cccc(Cl)c2)cc1.O=C(O)C(F)(F)F` this time
[A] 221

[Q] Moving on to the next molecule: `NC(=O)c1[nH]c2cnccc2c1-c1ccc(NC(=O)Nc2ccc(OC(F)(F)F)cc2)cc1`
[A] 276

[Q] Now consider `NC(=O)c1[nH]c2ncccc2c1-c1ccc(NC(=O)Nc2ccccc2F)cc1` .
[A] 268.7

====

Below is a list of entries, each paired with its recorded melting point value.
Answer format: numeric, °C implied, no suffix.

| Compound | Value unit | melting point |
| --- | --- | --- |
| NC(=O)c1[nH]c2ncccc2c1-c1ccc(NC(=O)Nc2cccc(C(F)(F)F)c2)cc1 [Example 20] | °C | 263.6 |
| NC(=O)c1[nH]c2cnccc2c1-c1ccc(NC(=O)Nc2ccc(OC(F)F)c(Cl)c2)cc1 [Example 58] | °C | 267 |
| NC(=O)c1[nH]c2c(ccc[n+]2[O-])c1-c1ccc(NC(=O)Nc2cc(C(F)(F)F)ccc2F)cc1 [Example 8] | °C | 220 |

Next item in the queue.
[Q] So what's the measured melting point for this one? NC(=O)c1[nH]c2cnccc2c1-c1ccc(NC(=O)Nc2ccc(C(F)(F)F)cc2)cc1 [Example 38]
[A] 289

====

Target: Aurora A (Homo sapiens, UniProt O14965)
Construct: Aurora2: whole recombinant protein comprising an N-terminal histidine tail; His (N)
Sequence (O14965 1-403): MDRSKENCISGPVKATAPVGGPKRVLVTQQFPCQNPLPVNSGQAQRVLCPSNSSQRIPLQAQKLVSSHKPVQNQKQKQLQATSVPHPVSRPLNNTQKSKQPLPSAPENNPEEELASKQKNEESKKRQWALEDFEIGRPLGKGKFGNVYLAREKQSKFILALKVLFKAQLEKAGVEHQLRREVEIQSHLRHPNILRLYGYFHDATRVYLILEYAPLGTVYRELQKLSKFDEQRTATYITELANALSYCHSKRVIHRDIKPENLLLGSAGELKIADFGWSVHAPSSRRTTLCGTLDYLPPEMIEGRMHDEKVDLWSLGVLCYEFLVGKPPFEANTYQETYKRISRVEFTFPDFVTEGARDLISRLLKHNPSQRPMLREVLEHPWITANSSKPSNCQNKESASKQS
Assay: Aurora2 (Aurora-A) enzymatic test, NuMA substrate phosphorylation, radioactivity detection
Conditions: 10 nM Aurora2, 500 nM NuMA, 1 μM ATP, 30 minutes, 37° C.; read-out: IC 50 Aurora A
Documented IC50 across a set of compounds
I only need the number, in nM, no unit after it.

| Compound | IC50, nM |
| --- | --- |
| NC(=O)c1[nH]c2ncccc2c1-c1ccc(NC(=O)Nc2cc(C(F)(F)F)ccc2F)cc1 [Example 7] | 553 |
| COc1ccc(C)cc1NC(=O)Nc1ccc(-c2c(C(N)=O)[nH]c3cnccc23)cc1 [Example 2] | 222 |
| Cc1ccc(F)c(NC(=O)Nc2ccc(-c3c(C(N)=O)[nH]c4cnccc34)cc2)c1.O=C(O)C(F)(F)F [Example 5, trifluoroacetate] | 131 |

[Q] Under Aurora A (Homo sapiens, UniProt O14965): IC50 value of NC(=O)c1[nH]c2cnccc2c1-c1ccc(NC(=O)Nc2cc(C(F)(F)F)ccc2F)cc1 [Example 1] ?
[A] 172

====

Overview of recorded melting point for various compounds
Just the number plus its unit, please.

| Compound | Recorded measurement |
| --- | --- |
| Cc1ccc(NC(=O)Nc2ccc(-c3c(C(N)=O)[nH]c4ncccc34)cc2)cc1C(F)(F)F [Example 26] | 285 °C |
| Cc1ccc(NC(=O)Nc2ccc(-c3c(C(N)=O)[nH]c4cnccc34)cc2)cc1C [Example 44] | 230 °C |
| NC(=O)c1[nH]c2ncccc2c1-c1ccc(NC(=O)Nc2ccc(F)cc2)cc1 [Example 24] | 299.9 °C |
| Cc1ccc(NC(=O)Nc2ccc(-c3c(C(N)=O)[nH]c4cnccc34)cc2)cc1C(F)(F)F [Example 52] | 199 °C |
| COc1cc(NC(=O)Nc2ccc(-c3c(C(N)=O)[nH]c4cnccc34)cc2)cc(OC)c1 [Example 45] | 225 °C |
| Cc1ccc(C)c(NC(=O)Nc2ccc(-c3c(C(N)=O)[nH]c4ncccc34)cc2)c1 [Example 18] | 308.8 °C |
| NC(=O)c1[nH]c2ncccc2c1-c1ccc(NC(=O)Nc2cccc(C(F)(F)F)c2F)cc1 [Example 13] | 265.4 °C |
| COc1ccc(NC(=O)Nc2ccc(-c3c(C(N)=O)[nH]c4cnccc34)cc2)cc1 [Example 57] | 275 °C |

[Q] I have this compound here, NC(=O)c1[nH]c2cnccc2c1-c1ccc(NC(=O)Nc2ccccc2C(F)(F)F)cc1 [Example 35] , and I need its recorded melting point.
[A] 228 °C

[Q] Next up: NC(=O)c1[nH]c2cnccc2c1-c1ccc(NC(=O)Nc2cccc(C(F)(F)F)c2F)cc1 [Example 49]
[A] 240 °C

[Q] Continue with NC(=O)c1[nH]c2cnccc2c1-c1ccc(NC(=O)Nc2ccc(F)cc2)cc1 [Example 37]
[A] 271 °C

[Q] Try the compound NC(=O)c1[nH]c2ncccc2c1-c1ccc(NC(=O)Nc2ccc(OC(F)(F)F)cc2)cc1 [Example 16]
[A] 258.9 °C

[Q] # iterate: NC(=O)c1[nH]c2cnccc2c1-c1ccc(NC(=O)Nc2ccc(OC(F)F)cc2)cc1 [Example 43]
[A] 257 °C

[Q] Ok, now COc1ccc(C)cc1NC(=O)Nc1ccc(-c2c(C(N)=O)[nH]c3cnccc23)cc1 [Example 2]
[A] 227 °C

====

melting point for assorted compounds
Express the result in °C but write the number alone.

| Mol smiles | Value unit | Recorded measurement |
| --- | --- | --- |
| NC(=O)c1[nH]c2cnccc2c1-c1ccc(NC(=O)Nc2ccc(Cl)c(C(F)(F)F)c2)cc1 | °C | 228 |
| Cc1ccc(NC(=O)Nc2ccc(-c3c(C(N)=O)[nH]c4ncccc34)cc2)cc1C | °C | 274.7 |
| Cc1ccc(NC(=O)Nc2ccc(-c3c(C(N)=O)[nH]c4cnccc34)cc2)cc1 | °C | 277 |
| NC(=O)c1[nH]c2ncccc2c1-c1ccc(NC(=O)Nc2cc(C(F)(F)F)ccc2Cl)cc1 | °C | 188.3 |

[Q] Suppose we examine the compound `COc1ccc(NC(=O)Nc2ccc(-c3c(C(N)=O)[nH]c4ncccc34)cc2)cc1OC` ; what melting point value has been reported?
[A] 223.7

[Q] Would you mind doing `CCc1cccc(NC(=O)Nc2ccc(-c3c(C(N)=O)[nH]c4ncccc34)cc2)c1` as well?
[A] 254

[Q] Try the compound `NC(=O)c1[nH]c2ncccc2c1-c1ccc(NC(=O)Nc2cc(F)cc(C(F)(F)F)c2)cc1`
[A] 257.5
